- System: COX1/COX2
- test description: Inhibition of ovine COX1/human COX2 assessed as reduction in PGF2alpha production at 100 uM preincubated for 10 mins followed by arachidonic acid substrate addition measured after 2 mins by colorimetric assay relative to control
- assay conditions: sheep (COX1) / human (COX2), ovine COX1/human COX2 enzyme, probe arachidonic acid
What inhibition at 2 min, 100 µM was measured for each of the following?

Reference set (4 entries):
>  <structure smiles string>
CCCCCCCCOc1ccc(-c2nn(-c3ccc(Cl)cc3)cc2C=C2C(=O)NC(=S)NC2=O)cc1

>  <tested target>
COX1/COX2

>  <result>
0%

$$$$
>  <structure smiles string>
CCCCOc1ccc(-c2nn(-c3ccccc3)cc2C=C2C(=O)NC(=S)NC2=O)cc1

>  <tested target>
COX1/COX2

>  <result>
16%

$$$$
>  <structure smiles string>
CCCCCCOc1ccc(-c2nn(-c3ccc(Cl)cc3)cc2/C=C(\C#N)C(=O)O)cc1

>  <tested target>
COX1/COX2

>  <result>
19%

$$$$
>  <structure smiles string>
CCOc1ccc(-c2nn(-c3ccc(Cl)cc3)cc2/C=C2/SC(=O)N(CC(=O)O)C2=O)cc1

>  <tested target>
COX1/COX2

>  <result>
6.8%

$$$$

Now consider the entry below.
input: What measured inhibition at 2 min, 100 µM is associated with "CCCCCCOc1ccc(-c2nn(-c3ccc(Cl)cc3)cc2C=C2C(=O)NC(=S)NC2=O)cc1" on COX1/COX2?
output: 0.7%

* * *

- tested target: Prostaglandin E synthase (Homo sapiens, UniProt O14684)
- Sequence (O14684 whole entry): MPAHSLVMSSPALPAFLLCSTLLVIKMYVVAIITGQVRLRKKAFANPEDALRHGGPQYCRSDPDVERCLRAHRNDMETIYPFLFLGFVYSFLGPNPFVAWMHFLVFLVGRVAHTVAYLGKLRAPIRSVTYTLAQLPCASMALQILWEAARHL
- test description: Inhibition of human mPGES1 expressed in 293 cell microsomes preincubated for 15 mins followed by PGH2 substrate addition measured after 3 secs by enzyme immunoassay
# strict inequality: IC50 < 600 nM yields condition met, everything else yields condition not met

>  <structure smiles string>
CCOc1ccc(-c2nn(-c3ccc(Cl)cc3)cc2/C=C2/SC(=O)N(CC(=O)O)C2=O)cc1

>  <label class>
condition met

$$$$
>  <structure smiles string>
O=C1NC(=O)C(=Cc2cn(-c3ccc(Cl)cc3)nc2-c2ccccc2)C(=O)N1

>  <label class>
condition met

$$$$
>  <structure smiles string>
O=C1NC(=S)NC(=O)C1=Cc1cn(-c2ccc(Cl)cc2)nc1-c1ccc(OCc2ccccc2)cc1

>  <label class>
condition not met

$$$$
>  <structure smiles string>
O=C1NC(=S)NC(=O)C1=Cc1cn(-c2ccc(Cl)cc2)nc1-c1ccccc1

>  <label class>
condition met

$$$$

input: Record "CCOc1ccc(-c2nn(-c3ccc(Cl)cc3)cc2/C=C(\C#N)C(=O)O)cc1" : is its IC50 strictly below 600 nM?
output: condition met

* * *

For each entry below, report its inhibition value.
- tested target: UniProtKB O14684
- test description: Inhibition of human mPGES1 expressed in 293 cell microsomes at 10 uM preincubated for 15 mins followed by PGH2 substrate addition measured after 3 secs by enzyme immunoassay relative to control

>  <structure smiles string>
CCCCCCOc1ccc(-c2nn(-c3ccc(Cl)cc3)cc2/C=C2/SC(=O)N(CC(=O)O)C2=O)cc1

>  <result>
> 70%

$$$$
>  <structure smiles string>
CCCCCCOc1ccc(-c2nn(-c3ccc(Cl)cc3)cc2/C=C(\C#N)C(N)=O)cc1

>  <result>
14%

$$$$
>  <structure smiles string>
CCCCCCOc1ccc(-c2nn(-c3ccc(Cl)cc3)cc2/C=C2/SC(=O)NC2=O)cc1

>  <result>
> 70%

$$$$
>  <structure smiles string>
CCCCOc1ccc(-c2nn(-c3ccccc3)cc2C=C2C(=O)NC(=S)NC2=O)cc1

>  <result>
> 70%

$$$$
>  <structure smiles string>
CCCCCCOc1ccc(-c2nn(-c3ccc(Cl)cc3)cc2C=C2C(=O)NC(=O)NC2=O)cc1

>  <result>
> 70%

$$$$

List the reported inhibition of each compound below.
1. CCCCCCOc1ccc(-c2nn(-c3ccc(Cl)cc3)cc2C=C2C(=O)NC(=S)NC2=O)cc1
2. CCCCCCCCCCOc1ccc(-c2nn(-c3ccc(Cl)cc3)cc2C=C2C(=O)NC(=S)NC2=O)cc1
3. CCOc1ccc(-c2nn(-c3ccc(Cl)cc3)cc2/C=C(\C#N)C(=O)O)cc1
4. CCOc1ccc(-c2nn(-c3ccc(Cl)cc3)cc2C=C(C#N)C#N)cc1
5. CCCCOc1ccc(-c2nn(-c3ccccc3)cc2C=C2C(=O)NC(=O)NC2=O)cc1
6. CCCCCCOc1ccc(-c2nn(-c3ccc(Cl)cc3)cc2C=C(C#N)C#N)cc1
7. CCOc1ccc(-c2nn(-c3ccc(Cl)cc3)cc2/C=C2/SC(=O)N(CC(=O)O)C2=O)cc1

output:
> 70%
> 70%
> 70%
51%
> 70%
64%
> 70%
